METRIC: melting point

# example entries with known answers
- SMILES_STRING: "CCCCNC(=O)[C@@H](C[C@H](O)[C@H](CC1CCCCC1)N=[N+]=[N-])C(C)C"
  melting point: "100 °C"
- SMILES_STRING: "Nc1nc(N)c(-c2ccc(Cl)cc2Cl)c(C=NO)n1"
  melting point: "260 to 265 °C"
- SMILES_STRING: "O=[N+]([O-])CS(=O)(=O)c1ccccc1Br"
  melting point: "74 to 76 °C"

Hi! Can you tell me melting point for each of these compounds?
1. CCCN(c1ccncc1[N+](=O)[O-])n1ccc2ccccc21
2. CS(=O)(=O)Nc1cccc(NC(=O)C(=O)N2CCC(Cc3ccccc3)CC2)c1

1. 84 to 86 °C
2. 128 to 130 °C

----------
Assignment: determine reported melting point for the given molecules.

# example entries with known answers
- MOLECULE: "COc1cc2c(cc1F)C(c1ccccc1Cl)=NC1=CNNC1=N2"
  RESULT: "242 to 243 °C"
- MOLECULE: "Cc1ccc(C)n1-c1c(C(C)C)cc([N+](=O)[O-])cc1C(C)C"
  RESULT: "125 to 132 °C"
- MOLECULE: "COC(=O)c1cccc(-n2cncn2)c1"
  RESULT: "115 to 120 °C"
- MOLECULE: "CCC(=O)Nc1ccc(-c2c[nH]c(=O)cn2)cc1"
  RESULT: "270 to 272 °C"

Hi! Can you tell me melting point for each of these molecules?
1. Cn1nc(C(F)(F)F)n(-c2ccc(C#Cc3ccccc3)cc2Cl)c1=S
2. CC(=O)[C@@H]1C[C@H](C(=O)OC(C)(C)C)N(C(=O)CNC(=O)Nc2cccc(C)c2)[C@@H]1c1ccccc1 (racemic)
3. COC(=O)[C@H]1N[C@@H](c2cccnc2)[C@@H]([N+](=O)[O-])[C@@H]1[C@@H](OCc1ccccc1)C(C)C
4. Clc1ccc(C(Br)C(Br)c2ncon2)cc1 (stereo not given)
5. CC(C)(NS(=O)(=O)c1ccc2c(Cl)cnc(Cl)c2c1)C(N)=O
6. OCCCc1cncn1Cc1noc2ccccc12

1: 50 to 53 °C; 2: 100 °C; 3: 70 to 71 °C; 4: 141 to 142 °C; 5: 220 to 222 °C; 6: 129 to 131 °C

----------
Assignment: determine reported melting point for the given molecules.

# example entries with known answers
- MOLECULE: "CCOC(=O)c1c[nH]c2c(OCOC)ccc(OC)c2c1=O"
  melting point: "175 to 177 °C"
- MOLECULE: "Cc1c(C(=O)O)sc2cc(Cc3cccnc3)ccc12"
  melting point: "250 to 252 °C"
- MOLECULE: "CON=C(C(=O)O)c1csc(NC(=O)OCC(Cl)(Cl)Cl)n1"
  melting point: "162 to 163 °C"
- MOLECULE: "COc1ccc2c(c1)C(=O)C(=Cc1cccc([N+](=O)[O-])c1)CO2"
  melting point: "157 to 159 °C"
- MOLECULE: "O=c1ncc(Br)cn1CCCl"
  melting point: "185 to 186 °C"
- MOLECULE: "CCC(=O)Nc1cccc(C2(c3cc(C(=O)CC)n(CC)c3)N=C(N)N(C)C2=O)c1 (stereo unspecified)"
  melting point: "120 to 141 °C"

Hi! Can you tell me melting point for each of these molecules?
1. CCCC(=O)Nc1n[nH]c2cc(-c3ccncc3)ccc12
2. COc1ccc(S(=O)(=O)Nc2ncccc2/C=C/c2ccccc2)cc1
3. CN(C)CCCNC(=O)CCCCCCCCCCCNC(N)=NC(=O)c1nc(Cl)c(N)nc1N
4. O=c1ccn(C2OC(C(O)CO)C(O)C2O)c(=O)[nH]1 (stereo unspecified)
5. CCC1C(=O)N2C(C(=O)OCc3ccc([N+](=O)[O-])cc3)=C(CCNC(C)=O)CC12 (stereo unspecified)
6. N#Cc1c(N2CCN(C(=O)c3ccc4ccccc4n3)CC2)c2ccccc2n(Cc2ccc(F)cc2)c1=O

200 °C
152 to 155 °C
82 to 84 °C
175 to 176 °C
174 to 176 °C
144 to 157 °C
